System: SK-Mel-5
Test Details: CellTiter-Glo cell viability, SK-Mel-5
Assay type: cell-based
Run Conditions: Homo sapiens; SK-Mel-5 cells, 72 h with compound
Procedure: Antitumor activity against a panel of cancer cell lines Antitumor activity of the compounds was assessed by using the CellTiter-Glow® Luminescent Cell Viability assay (Promega #G7572) according to the manufacturer's instructions. The compounds were tested at 5 or 6 concentrations in 1:2 dilution increments (highest concentration 10 µM) in triplicate well conditions. […]
pIC50: −log10 of the molar value.
Measured Metric: pIC50

a. COc1ccc2c(=O)c(-c3ccc(CCCC[P+](c4ccccc4)(c4ccccc4)c4ccccc4)cc3)coc2c1OC.[Br-] [SND470]
b. COc1c(O)ccc2c(=O)c(-c3ccc(CCCC[P+](c4ccccc4)(c4ccccc4)c4ccccc4)cc3)coc12 [SND530]
Lookup: Exercise: compare a and b ; which one has the greater pIC50? Choose, then provide that item's label.
Found: a
(a: 6.33, b: 5.96)

meta.source: patent US20260028364A1
